- System: BDF1 mice, P388 leukemia ip, median survival T/C
- EXPERIMENT_SUMMARY: NCI In Vivo Anticancer Drug Screen. Data for tumor model P388 Leukemia (intraperitoneal) in B6D2F1 (BDF1) mice
- TEST_CONDITIONS: endpoint: median survival time; dose: 12.5 mg/kg/injection; schedule: Q01DX009 (ip); vehicle: water; higher = longer survival
- Procedure: The antitumor activity of compounds was measured in mice bearing transplantable tumors. Survival or tumor size were measured and the results are expressed as the measurement made in the treated group (T) divided by the measurement made in the vehicle treated control group (C). The tumor model used in this assay is P388 Leukemia (intraperitoneal) in B6D2F1 (BDF1) mice
Inconclusive results and toxic doses are left out.
QUANTITY_MEASURED: T/C

[[record]]
smiles_str = "c1ccc(Cn2ccnc2C2OCCO2)cc1"
result = "88 % of control"

[[record]]
smiles_str = "COc1ccc(CN(C)CCN(C)CCN(C)Cc2ccc(OC)cc2)cc1"
result = "99 % of control"

[[record]]
smiles_str = "NC(=O)/C=C/c1c[nH]c2nccnc12"
result = "121 % of control"

[[record]]
smiles_str = "COc1cc(/C=C/C(=O)c2ccc3c(c2)OCO3)ccc1OCc1ccccc1"
result = "100 % of control"


====

Catalogue of T/C values
- Tested on: BDF1 mice, P388 leukemia ip, median survival T/C
- EXPERIMENT_SUMMARY: NCI In Vivo Anticancer Drug Screen. Data for tumor model P388 Leukemia (intraperitoneal) in B6D2F1 (BDF1) mice
- TEST_CONDITIONS: endpoint: median survival time; dose: 100.0 mg/kg/injection; schedule: Q01DX009 (ip); vehicle: saline with Tween-80; higher = longer survival
- Method: The antitumor activity of compounds was measured in mice bearing transplantable tumors. Survival or tumor size were measured and the results are expressed as the measurement made in the treated group (T) divided by the measurement made in the vehicle treated control group (C). The tumor model used in this assay is P388 Leukemia (intraperitoneal) in B6D2F1 (BDF1) mice
Toxic doses and inconclusive results are not listed.
QUANTITY_MEASURED: T/C

[[record]]
compound = "CCCCCCC(NC(C)=O)C(C)=O (configuration not stated)"
quantity_measured = "T/C"
result = "101 % of control"

[[record]]
compound = "COC(=O)CC(C)Cc1ccc(OC)c(OC)c1 (configuration not stated)"
quantity_measured = "T/C"
result = "104 % of control"

[[record]]
compound = "CCOC(=O)C1=C(O)c2c(sc(C)c2C)N(S(=O)(=O)c2ccc(C)cc2)CC1"
quantity_measured = "T/C"
result = "104 % of control"

[[record]]
compound = "OC(CCl)COCC#Cc1ccccc1 (configuration not stated)"
quantity_measured = "T/C"
result = "95 % of control"

[[record]]
compound = "CC(=O)CC(=O)N1CCCCCC1"
quantity_measured = "T/C"
result = "89 % of control"

[[record]]
compound = "O=C(N=Nc1c(O)[nH]c2c(Cl)cc(Cl)cc12)C(=O)Nc1cccc(C(F)(F)F)c1"
quantity_measured = "T/C"
result = "90 % of control"

[[record]]
compound = "CCOC(=O)c1cnn(-c2ccccc2)c1N"
quantity_measured = "T/C"
result = "241 % of control"

[[record]]
compound = "CC(=O)c1ccccc1[N+](=O)[O-]"
quantity_measured = "T/C"
result = "100 % of control"

[[record]]
compound = "CCCNC(=S)NNC(=O)c1ccncc1"
quantity_measured = "T/C"
result = "100 % of control"

[[record]]
compound = "COc1ccc(C(=O)C/C(=N\\N(C(=O)c2ccc(OC)cc2)c2ccccc2)c2ccc(OC)cc2)cc1"
quantity_measured = "T/C"
result = "100 % of control"

[[record]]
compound = "COc1ccc(OP2OCC(C)O2)cc1 (configuration not stated)"
quantity_measured = "T/C"
result = "102 % of control"

[[record]]
compound = "Cc1cc(NC(=O)c2ccc(C(=O)Nc3ccc(C4=NCCN4)c(C)c3)cc2)ccc1C1=NCCN1"
quantity_measured = "T/C"
result = "122 % of control"

[[record]]
compound = "COc1cc(NC(=O)CC(C)=O)c(OC)cc1Cl"
quantity_measured = "T/C"
result = "95 % of control"

[[record]]
compound = "Clc1ccc(C2(Cn3ccnc3)OCC(COc3ccc(-c4ccccc4)cc3)O2)c(Cl)c1 (configuration not stated)"
quantity_measured = "T/C"
result = "101 % of control"

[[record]]
compound = "CCOc1ccc(NC(=O)OCCN2CCN(CCc3ccccc3)C(C)C2)cc1 (configuration not stated)"
quantity_measured = "T/C"
result = "98 % of control"

[[record]]
compound = "ClCCN(CCCl)c1ccc2c3c(cccc13)-c1ccccc1-2"
quantity_measured = "T/C"
result = "177 % of control"

[[record]]
compound = "O=S(=O)(Nc1ccc(-c2ccccc2)cc1)c1ccccc1"
quantity_measured = "T/C"
result = "101 % of control"

[[record]]
compound = "CC(=Nc1ccccc1)C1=C(O)C(Cc2ccc(O)cc2)NC1=O (configuration not stated)"
quantity_measured = "T/C"
result = "101 % of control"

[[record]]
compound = "Cc1c(C#N)c2nc(C(=O)c3ccc(Br)cc3)cc(-c3ccc(Br)cc3)n2c1C"
quantity_measured = "T/C"
result = "104 % of control"

[[record]]
compound = "COC(=O)N1C=Cc2ccccc2C1C#N (configuration not stated)"
quantity_measured = "T/C"
result = "110 % of control"

[[record]]
compound = "COC(=O)NC1C(C)C=CC(C)C1I (configuration not stated)"
quantity_measured = "T/C"
result = "95 % of control"

[[record]]
compound = "CCCC(=O)OCc1ccccn1"
quantity_measured = "T/C"
result = "102 % of control"

[[record]]
compound = "c1ccc2c3c(ccc2c1)Sc1ccc2ccccc2c1N3"
quantity_measured = "T/C"
result = "90 % of control"

[[record]]
compound = "CC(=O)OCC1OC(n2ccc(N)nc2=O)C(OC(C)=O)C1OC(C)=O (configuration not stated)"
quantity_measured = "T/C"
result = "188 % of control"

[[record]]
compound = "S=c1[nH]c2ccccc2s1.[Zn+2]"
quantity_measured = "T/C"
result = "100 % of control"

[[record]]
compound = "CNC(=S)NC1C2CC3CC(C2)CC1C3 (configuration not stated)"
quantity_measured = "T/C"
result = "94 % of control"

[[record]]
compound = "Cc1ccc2c(c1)N=C(Nc1ccccc1)N=S2(C)=O (configuration not stated)"
quantity_measured = "T/C"
result = "160 % of control"

[[record]]
compound = "Clc1nc2nsnc2nc1Cl"
quantity_measured = "T/C"
result = "122 % of control"

[[record]]
compound = "COCC(O)CN1CCN(c2ccccc2C)CC1 (configuration not stated)"
quantity_measured = "T/C"
result = "91 % of control"

[[record]]
compound = "O=C(Cn1cc(F)c(=O)[nH]c1=O)c1ccc(Cl)s1"
quantity_measured = "T/C"
result = "96 % of control"

[[record]]
compound = "Br/C(C=Nc1ccccc1)=C\\Nc1ccccc1"
quantity_measured = "T/C"
result = "100 % of control"

[[record]]
compound = "COc1cc(-c2nc3ccccc3c(=O)o2)cc(OC)c1OC"
quantity_measured = "T/C"
result = "115 % of control"

[[record]]
compound = "Nc1nc2c(c(=O)[nH]1)N(C=O)C(CNc1ccc(C(=O)N[C@@H](CCC(=O)O)C(=O)O)cc1)CN2 (some centres not stated)"
quantity_measured = "T/C"
result = "95 % of control"

[[record]]
compound = "CCOC(=O)CC(=O)N/N=C(/C)C(=O)OCC"
quantity_measured = "T/C"
result = "108 % of control"

[[record]]
compound = "COC(=O)CCC1([N+](=O)[O-])CCCCC1"
quantity_measured = "T/C"
result = "95 % of control"

[[record]]
compound = "Nc1c(C(=O)O)cccc1C(=O)O"
quantity_measured = "T/C"
result = "104 % of control"

[[record]]
compound = "CCOC(=O)CCN(CC(=O)OCC)C(C)C"
quantity_measured = "T/C"
result = "104 % of control"

